# tested_on: CES1b (Homo sapiens, UniProt P23141)
# Construct: purchased Corning Incorporated (Corning, NY); host or cells: baculovirus-infected insect cells (microsomal fraction, Supersomes)
# Sequence (P23141 18-567): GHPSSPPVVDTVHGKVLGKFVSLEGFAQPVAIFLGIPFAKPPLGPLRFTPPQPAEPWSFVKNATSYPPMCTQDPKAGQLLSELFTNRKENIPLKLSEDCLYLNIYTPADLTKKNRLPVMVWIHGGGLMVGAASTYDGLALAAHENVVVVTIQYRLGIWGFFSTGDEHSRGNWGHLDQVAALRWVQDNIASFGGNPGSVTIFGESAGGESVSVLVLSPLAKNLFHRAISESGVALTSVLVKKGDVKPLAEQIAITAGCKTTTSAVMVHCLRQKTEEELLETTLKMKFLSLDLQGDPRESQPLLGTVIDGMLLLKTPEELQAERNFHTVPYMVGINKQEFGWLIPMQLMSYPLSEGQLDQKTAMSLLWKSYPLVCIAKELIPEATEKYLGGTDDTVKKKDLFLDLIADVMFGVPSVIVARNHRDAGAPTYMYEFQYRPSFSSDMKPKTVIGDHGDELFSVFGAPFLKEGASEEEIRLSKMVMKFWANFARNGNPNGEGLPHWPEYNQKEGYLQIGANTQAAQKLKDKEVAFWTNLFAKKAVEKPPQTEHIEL
# method: CES1b-catalyzed hydrolysis of 4-NPA, inhibition by inhibitors
# Format: biochemical
experimental_endpoint: IC50

State its IC50: CCC[C@H](NC(=O)[C@@H]1[C@H]2CCC[C@H]2CN1C(=O)[C@@H](NC(=O)[C@@H](NC(=O)c1cnccn1)C1CCCCC1)C(C)(C)C)C(=O)C(=O)NC1CC1 [Telaprevir]
> 100 µM

----------
# tested_on: CatA (Homo sapiens, UniProt P10619)
# Sequence (P10619 29-326 limits assumed): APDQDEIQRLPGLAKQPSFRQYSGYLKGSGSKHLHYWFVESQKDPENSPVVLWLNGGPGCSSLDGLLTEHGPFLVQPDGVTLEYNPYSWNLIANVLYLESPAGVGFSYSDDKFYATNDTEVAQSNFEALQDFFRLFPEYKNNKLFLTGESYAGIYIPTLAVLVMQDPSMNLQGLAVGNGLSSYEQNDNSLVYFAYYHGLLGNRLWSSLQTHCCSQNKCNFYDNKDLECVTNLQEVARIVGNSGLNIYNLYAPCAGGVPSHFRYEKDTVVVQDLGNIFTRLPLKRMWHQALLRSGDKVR
# Sequence (P10619 327-480 limits assumed): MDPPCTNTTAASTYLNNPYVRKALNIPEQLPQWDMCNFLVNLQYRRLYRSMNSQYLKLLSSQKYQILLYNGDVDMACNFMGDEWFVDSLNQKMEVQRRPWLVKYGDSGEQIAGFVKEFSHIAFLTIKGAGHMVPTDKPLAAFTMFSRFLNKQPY
# method: CatA-catalyzed hydrolysis of fluorogenic peptide substrate, inhibition
# Type: biochemical
# Parameters: purchased R&D Systems (Minneapolis, MN)
# experimental_conditions: Inhibition (IC50) of enzyme activities, CatA pH 5.5, pH 5.5, fluorogenic peptide substrate
experimental_endpoint: IC50 (nM)
Hi! Could you send only the number? It should be in nM, unit omitted.

State its IC50: CCC[C@H](NC(=O)[C@@H]1[C@H]2CCC[C@H]2CN1C(=O)[C@@H](NC(=O)[C@@H](NC(=O)c1cnccn1)C1CCCCC1)C(C)(C)C)C(=O)C(=O)NC1CC1
340

----------
# tested_on: CatA (Homo sapiens, UniProt P10619)
# method: CatA-catalyzed hydrolysis of fluorogenic peptide substrate, inhibition
# Assay type: biochemical
# Design: purchased R&D Systems (Minneapolis, MN)
# experimental_conditions: Inhibition (IC50) of enzyme activities, CatA pH 6.5, pH 6.5, fluorogenic peptide substrate
experimental_endpoint: pIC50
In textbook form, pIC50 equals minus log to base ten of the concentration in mol/L.

State its pIC50: CCC[C@H](NC(=O)[C@@H]1[C@H]2CCC[C@H]2CN1C(=O)[C@@H](NC(=O)[C@@H](NC(=O)c1cnccn1)C1CCCCC1)C(C)(C)C)C(=O)C(=O)NC1CC1
7.11

----------
# tested_on: HINT1 (Homo sapiens)
# Construct: purchased Abcam (Cambridge, MA)
# Sequence (P49773 whole entry): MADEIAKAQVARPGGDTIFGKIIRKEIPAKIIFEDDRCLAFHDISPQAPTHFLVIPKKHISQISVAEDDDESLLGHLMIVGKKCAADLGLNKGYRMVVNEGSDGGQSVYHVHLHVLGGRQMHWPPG
# method: HINT1-catalyzed hydrolysis of RDV MetX, inhibition
# Type: biochemical
pIC50: −log10 of the molar value.
experimental_endpoint: pIC50

State its pIC50: CCC[C@H](NC(=O)[C@@H]1[C@H]2CCC[C@H]2CN1C(=O)[C@@H](NC(=O)[C@@H](NC(=O)c1cnccn1)C1CCCCC1)C(C)(C)C)C(=O)C(=O)NC1CC1
< 4.00
